Every entry's value here was drawn from patent US20210324359A1.

# Test system: P. aeruginosa strain WC-453
# Assay Protocol: Time-kill assay in HEPES or CAA with 25% human serum (Tables 7, 8)
# Assay type: cell-based, Pseudomonas aeruginosa
# Condition Parameters: 25 mM HEPES pH 7.4; lysin 10 μg/ml; 3 hr; WC-453
Readout Name: HEPES (Log10 CFU/mL), 3 hr
The figure you give is taken to be in Log10 CFU/mL; do not add the unit.

Query: Given GN80: dispersin B-like molecule (SEQ ID NO: 214) (protein, listed as Staphylococcus sciuri) MENIQKGITVDIARKSYSLETLKTIVKHIHDHNGQYLQLHFSDDENYAIESEYFDRKSFSNPYYLTKTEVKSLIEYSNDLNVMVIPDMDFPSHSKAFLSLIKQNDKSLYQEIISDYSDNTLDFFSNRKAVDVTNRQIDEITELFKQPQFAEQQRIVLGGDEVAGGGAHQNSFIEYMNQIGDYAFQQGYEPQMWNDMVTHEGVKSLNNHYSILYWKQNEDNKSNLTVEDFDKYYFDVYNYNYYSLYFLPSKQFSQDDINEQAEYIGWAYAYNKFYYNKNPYSEVNSQNVKGSALSFWGEHATDMTQEELINQEVPLIKVYFNLKK , state its recorded HEPES (Log10 CFU/mL), 3 hr.
Response: 6.7

Query: # lookup: HEPES (Log10 CFU/mL), 3 hr of GN7: lysin obtained from a marine metagenome (SEQ ID NO: 206) (protein, GOS_4958713 hypothetical protein GOS_4958713, partial [marine metagenome]) MTPFDHALELTLGLEGGYSNHLMDRGGETMCGITEAVARRHGWEGEMRDLPIEMVRHIYKVDYWDPLMGDYLGEHNPELAEELFDTAVNCGVGFASKILQKSINVLNRNRTEDIAEDGQIGPQTLKALRDLARRDYDYLLECCKILQGNHYISLAHRDPTQRIFIRGWLTRV
Response: 6.2

Query: HEPES (Log10 CFU/mL), 3 hr lookup needed for GN40: lysin obtained from Pseudomonas putida strain PA14H7 (SEQ ID NO: 210) (protein, listed as Micavibrio aeruginosavorus) MFRPSYILPGVAAVMLLASTAAHAAGYEWKRVDYQYLQSVSEKERGMLRIYKDYEEREPCQNYRELPPEVKYVDCKLYHRVAIPDPPPPPAPPPAPEPPKVVSSYEIFFPLDSTALDLQANAMVDKAAADIALYQPSTVIVAGYTDTSGAADYNDQLSANRAMAVSAALSQRGIPNTAMDLEAHGQNDLKVPTADDVHEPQNRRTVIHFMK , thanks.
Response: 5.7
